# Tested on: Protein cereblon/Androgen receptor (Homo sapiens), P10275+Q96SW2 [UNDEFINED MUTATION]
# Assay Method Text: PROTAC activity at AR-V7/CRBN in human 22Rv1 cells assessed as induction of AR-V7 degradation at 5 uM incubated for 24 hrs by Western blot analysis relative to control
# Format: cell-based
# Condition Label: CWR22R
Parameter: Activity (%)

// solved cases for Activity follow
* CC(C)(c1ccc(OCCCCNc2ccc3c(c2)C(=O)N(C2CCC(=O)NC2=O)C3=O)cc1)c1ccc(OCC(O)CCl)cc1 (configuration not stated) | 23.6
* CC(C)(c1ccc(OCC(=O)NCCCNc2cccc3c2C(=O)N(C2CCC(=O)NC2=O)C3=O)cc1)c1ccc(OCC(O)CCl)cc1 (configuration not stated) | 93.6
* CC(C)(c1ccc(OCCNc2cccc3c2C(=O)N(C2CCC(=O)NC2=O)C3=O)cc1)c1ccc(OCC(O)CCl)cc1 (configuration not stated) | 87

A: CC(C)(c1ccc(OCCNc2cccc3c2C(=O)N(C2CCC(=O)NC2=O)C3=O)cc1)c1ccc(OCc2cccc(N3CCOCC3)n2)cc1 (configuration not stated)
B: CC(C)(c1ccc(OCC(=O)NCCCNc2cccc3c2C(=O)N(C2CCC(=O)NC2=O)C3=O)cc1)c1ccc(OCc2cccc(N3CCOCC3)n2)cc1 (configuration not stated)
Exercise: compare A and B ; which one has the greater Activity? Your answer should be the label attached to the chosen record.
A

----------
# Assay Method Text: Metabolic stability in human liver microsome assessed as half life measured upto 45 mins by LC/MS analysis
# Format: ADME
# Condition Label: liver microsomes
Parameter: half-life (min)
Answer in min, number only, no unit symbol.

Specify measured half-life for CC(C)(c1ccc(OCCNc2cccc3c2C(=O)N(C2CCC(=O)NC2=O)C3=O)cc1)c1ccc(OCc2cccc(N3CCOCC3)n2)cc1 (stereo unspecified) .
37.2

----------
# Assay Method Text: Tmax in Sprague-Dawley rat 2 mg/kg, iv by LC-MS/MS analysis
# Assay type: ADME, organism-based
# Condition Label: in vivo
Parameter: Tmax (min)
Answer in min, number only, no unit symbol.

Specify measured Tmax for CC(C)(c1ccc(OCCNc2cccc3c2C(=O)N(C2CCC(=O)NC2=O)C3=O)cc1)c1ccc(OCc2cccc(N3CCOCC3)n2)cc1 (stereo unspecified) .
4.98

----------
# Assay Method Text: Metabolic stability in mouse liver microsome assessed as half life measured upto 45 mins by LC/MS analysis
# Type: ADME
# Condition Label: liver microsomes
Parameter: half-life (min)
Answer in min, number only, no unit symbol.

Specify measured half-life for CC(C)(c1ccc(OCCNc2cccc3c2C(=O)N(C2CCC(=O)NC2=O)C3=O)cc1)c1ccc(OCc2cccc(N3CCOCC3)n2)cc1 (stereo unspecified) .
18.4

----------
# Assay Method Text: Antiproliferative activity against human RWPE-1 cells assessed as cell viability incubated for 4 days by CCK-8 assay
# Type: toxicity, cell-based
Parameter: IC50 at 4 days

Specify measured IC50 at 4 days for CC(C)(c1ccc(OCCNc2cccc3c2C(=O)N(C2CCC(=O)NC2=O)C3=O)cc1)c1ccc(OCc2cccc(N3CCOCC3)n2)cc1 (stereo unspecified) .
> 80 µM

----------
# Tested System: Protein cereblon/Androgen receptor (Homo sapiens, UniProt P10275+Q96SW2)
# Sequence (P10275 whole entry, looked up): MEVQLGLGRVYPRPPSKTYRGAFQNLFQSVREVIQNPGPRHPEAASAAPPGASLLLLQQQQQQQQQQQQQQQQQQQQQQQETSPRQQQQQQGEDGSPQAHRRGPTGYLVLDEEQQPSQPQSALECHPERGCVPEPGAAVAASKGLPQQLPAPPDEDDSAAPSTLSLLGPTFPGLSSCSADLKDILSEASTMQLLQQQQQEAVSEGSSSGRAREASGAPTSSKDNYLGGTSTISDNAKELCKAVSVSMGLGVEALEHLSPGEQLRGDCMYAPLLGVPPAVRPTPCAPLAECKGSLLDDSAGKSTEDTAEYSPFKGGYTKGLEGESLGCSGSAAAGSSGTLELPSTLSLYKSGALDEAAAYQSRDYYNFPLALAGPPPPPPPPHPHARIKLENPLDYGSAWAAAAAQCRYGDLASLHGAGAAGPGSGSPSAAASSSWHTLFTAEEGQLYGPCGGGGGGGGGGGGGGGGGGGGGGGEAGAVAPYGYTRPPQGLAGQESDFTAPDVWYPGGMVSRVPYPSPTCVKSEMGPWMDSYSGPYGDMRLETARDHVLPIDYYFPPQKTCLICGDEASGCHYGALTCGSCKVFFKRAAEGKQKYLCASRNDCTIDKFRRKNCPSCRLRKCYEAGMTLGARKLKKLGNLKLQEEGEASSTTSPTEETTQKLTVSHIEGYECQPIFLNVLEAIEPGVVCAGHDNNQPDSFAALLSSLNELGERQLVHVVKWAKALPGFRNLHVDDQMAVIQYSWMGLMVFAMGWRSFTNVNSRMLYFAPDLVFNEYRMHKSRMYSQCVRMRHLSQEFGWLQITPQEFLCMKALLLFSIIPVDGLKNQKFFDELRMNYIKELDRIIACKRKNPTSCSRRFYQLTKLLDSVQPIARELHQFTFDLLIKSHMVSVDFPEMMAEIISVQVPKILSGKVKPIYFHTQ
# Sequence (Q96SW2 whole entry, looked up): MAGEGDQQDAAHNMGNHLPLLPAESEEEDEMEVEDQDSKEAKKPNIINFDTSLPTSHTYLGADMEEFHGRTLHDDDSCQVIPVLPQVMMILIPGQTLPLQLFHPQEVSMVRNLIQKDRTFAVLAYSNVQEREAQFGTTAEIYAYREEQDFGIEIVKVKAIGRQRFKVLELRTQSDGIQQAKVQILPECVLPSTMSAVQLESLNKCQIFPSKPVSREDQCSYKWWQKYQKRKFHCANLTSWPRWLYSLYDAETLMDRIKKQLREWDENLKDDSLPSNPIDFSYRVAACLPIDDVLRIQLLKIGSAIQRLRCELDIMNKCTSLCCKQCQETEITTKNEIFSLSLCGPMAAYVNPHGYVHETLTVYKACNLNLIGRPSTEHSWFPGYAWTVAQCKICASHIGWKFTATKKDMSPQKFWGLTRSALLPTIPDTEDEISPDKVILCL
# Assay Method Text: PROTAC activity at full length Androgen receptor/CRBN in human 22Rv1 cells assessed as induction of full length Androgen receptor degradation at 5 uM incubated for 24 hrs by Western blot analysis relative to control
# Type: cell-based
Parameter: Activity (%)

// solved cases for Activity follow
• CC(C)(c1ccc(OCCCCNc2ccc3c(c2)C(=O)N(C2CCC(=O)NC2=O)C3=O)cc1)c1ccc(OCC(O)CCl)cc1 (configuration not stated) = 81.1
• CC(C)(c1ccc(OCCNc2cccc3c2C(=O)N(C2CCC(=O)NC2=O)C3=O)cc1)c1ccc(OCc2cccc(N3CCOCC3)n2)cc1 (configuration not stated) = 90.2

I: CC(C)(c1ccc(OCC(=O)NC2CN(c3cccc4c3C(=O)N(C3CCC(=O)NC3=O)C4=O)C2)cc1)c1ccc(OCC(O)CCl)cc1 (configuration not stated)
II: CC(C)(c1ccc(OCCCNc2cccc3c2C(=O)N(C2CCC(=O)NC2=O)C3=O)cc1)c1ccc(OCC(O)CCl)cc1 (configuration not stated)
Exercise: compare I and II ; which one has the greater Activity? Your answer should be the label attached to the chosen record.
I
(I: 89%, II: 58.3%)

----------
# Tested System: Protein cereblon/Androgen receptor (Homo sapiens, UniProt P10275+Q96SW2)
# Assay Method Text: PROTAC activity at full length Androgen receptor/CRBN in human 22Rv1 cells assessed as induction of full length Androgen receptor degradation at 5 uM incubated for 24 hrs by Western blot analysis relative to control
# Type: cell-based
Parameter: Activity (%)

1: CC(C)(c1ccc(OCC(=O)NC2CCN(c3ccc4c(c3)C(=O)N(C3CCC(=O)NC3=O)C4=O)CC2)cc1)c1ccc(OCC(O)CCl)cc1 (stereo not given)
2: CC(C)(c1ccc(OCC(=O)N2CCC(CNc3ccc4c(c3)C(=O)N(C3CCC(=O)NC3=O)C4=O)CC2)cc1)c1ccc(OCC(O)CCl)cc1 (stereo not given)
Between 1 and 2 , which one has the lower reported Activity value? Your answer should be the label attached to the chosen record.
1
(1: 45.2%, 2: 69.6%)

----------
# Tested on: Protein cereblon/Androgen receptor (Homo sapiens), P10275+Q96SW2 [UNDEFINED MUTATION]
# Assay Method Text: PROTAC activity at AR-V7/CRBN in human 22Rv1 cells assessed as induction of AR-V7 degradation at 5 uM incubated for 24 hrs by Western blot analysis relative to control
# Type: cell-based
# Condition Label: CWR22R
Parameter: Activity (%)

// solved cases for Activity follow
* CC(C)(c1ccc(OCCCNc2cccc3c2C(=O)N(C2CCC(=O)NC2=O)C3=O)cc1)c1ccc(OCC(O)CCl)cc1 (configuration not stated) | 83.1
* CC(C)(c1ccc(OCC(=O)NC2CCN(c3ccc4c(c3)C(=O)N(C3CCC(=O)NC3=O)C4=O)CC2)cc1)c1ccc(OCC(O)CCl)cc1 (configuration not stated) | 71.4

1: CC(C)(c1ccc(OCC(=O)NC2CN(c3cccc4c3C(=O)N(C3CCC(=O)NC3=O)C4=O)C2)cc1)c1ccc(OCC(O)CCl)cc1 (configuration not stated)
2: CC(C)(c1ccc(OCCCCCCNc2ccc3c(c2)C(=O)N(C2CCC(=O)NC2=O)C3=O)cc1)c1ccc(OCC(O)CCl)cc1 (configuration not stated)
Between 1 and 2 , which one has the lower reported Activity value? Your answer should be the label attached to the chosen record.
2

----------
# Tested System: Protein cereblon/Androgen receptor (Homo sapiens, UniProt P10275+Q96SW2)
# Assay Method Text: PROTAC activity at full length Androgen receptor/CRBN in human 22Rv1 cells assessed as induction of full length Androgen receptor degradation at 5 uM incubated for 24 hrs by Western blot analysis relative to control
# Type: cell-based
Parameter: Activity (%)

1: CC(C)(c1ccc(OCC(=O)NCCCCCCNc2ccc3c(c2)C(=O)N(C2CCC(=O)NC2=O)C3=O)cc1)c1ccc(OCC(O)CCl)cc1 (centres undefined)
2: CC(C)(c1ccc(OCCCCNc2cccc3c2C(=O)N(C2CCC(=O)NC2=O)C3=O)cc1)c1ccc(OCC(O)CCl)cc1 (centres undefined)
Between 1 and 2 , which one has the lower reported Activity value? Your answer should be the label attached to the chosen record.
2
(2: 31.3%, 1: 72.1%)

----------
# Assay Method Text: Half life in Sprague-Dawley rat 2 mg/kg, iv by LC-MS/MS analysis
# Type: ADME, organism-based
# Condition Label: in vivo
Parameter: half-life (h)
Answer in h, number only, no unit symbol.

Specify measured half-life for CC(C)(c1ccc(OCCNc2cccc3c2C(=O)N(C2CCC(=O)NC2=O)C3=O)cc1)c1ccc(OCc2cccc(N3CCOCC3)n2)cc1 (stereo unspecified) .
2.64

----------
# Tested System: Protein cereblon/Androgen receptor (Homo sapiens, UniProt P10275+Q96SW2)
# Assay Method Text: PROTAC activity at full length Androgen receptor/CRBN in human 22Rv1 cells assessed as induction of full length Androgen receptor degradation at 5 uM incubated for 24 hrs by Western blot analysis relative to control
# Assay type: cell-based
Parameter: Activity (%)

- CC(C)(c1ccc(OCC(=O)NCCOCCOCCOCCNc2cccc3c2C(=O)N(C2CCC(=O)NC2=O)C3=O)cc1)c1ccc(OCc2cccc(N3CCOCC3)n2)cc1 (centres undefined): 83.5

A: CC(C)(c1ccc(OCC(=O)NCCCNc2cccc3c2C(=O)N(C2CCC(=O)NC2=O)C3=O)cc1)c1ccc(OCC(O)CCl)cc1 (centres undefined)
B: CC(C)(c1ccc(OCC(=O)NC2CN(c3ccc4c(c3)C(=O)N(C3CCC(=O)NC3=O)C4=O)C2)cc1)c1ccc(OCC(O)CCl)cc1 (centres undefined)
Between A and B , which one has the lower reported Activity value? Your answer should be the label attached to the chosen record.
B

----------
# Assay Method Text: Metabolic stability in human liver microsome assessed as intrinsic clearance measured upto 45 mins by LC/MS analysis
# Type: ADME
# Condition Label: liver microsomes, read-out: CLH
Parameter: CLint scaled (mL/min/kg)
Answer in mL/min/kg, number only, no unit symbol.

Specify measured CLint scaled for CC(C)(c1ccc(OCCNc2cccc3c2C(=O)N(C2CCC(=O)NC2=O)C3=O)cc1)c1ccc(OCc2cccc(N3CCOCC3)n2)cc1 (stereo unspecified) .
43.1
